Here, each record is paired with measured IC90 data.
# System: P. falciparum malaria parasite clone Indochina (W-2)
# assay_protocol: in vitro susceptibility testing, uptake of tritiated hypoxanthine as index of inhibition of parasite growth, Indochina (W-2) clone
# Assay type: cell-based
# measurement_conditions: Plasmodium falciparum; Table III, INDOCHINA CLONE (W-2); read-out: IC90
# number only, unit nM dropped from output

COC1OC2(C)CCC3CCCC(CCOC(=O)c4ccc(C(=O)O)cc4)C31OO2 (stereo not shown) [Compound 36] ... 46.1
COC1OC2(C)CCC3CCCC(CCOS(=O)(=O)N(C)C)C31OO2 (stereo not shown) [Compound 27] ... 23
COC1OC2(C)CCC3CCCC(CCOC(=O)N(C)C)C31OO2 (stereo not shown) [Compound 26] ... 1.29
COCCC1CCCC2CCC3(C)OOC12C(OC)O3 (stereo not shown) [Compound 101] ... 4.62
COC1OC2(C)CCC3CCCC(CCOS(=O)(=O)c4ccc(C)cc4)C31OO2 (stereo not shown) [Compound 23] ... 10.2

Q) Using known records, supply IC90 for COC(=O)c1ccccc1S(=O)(=O)OCCC1CCCC2CCC3(C)OOC12C(OC)O3 (stereo not shown) [Compound 24]
A) 19.7

Q) Using known records, supply IC90 for COC1OC2(C)CCC3CCCC(CCOC(=O)c4ccc(C(=O)OCCN(C)C)cc4)C31OO2 (stereo not shown) [Compound 20]
A) 24.7

* * *

Here, each record is paired with measured log10 IC50 data.
# System: P. falciparum malaria parasite clone Indochina (W-2)
# assay_protocol: in vitro susceptibility testing, uptake of tritiated hypoxanthine as index of inhibition of parasite growth, Indochina (W-2) clone
# Type: cell-based
# measurement_conditions: Plasmodium falciparum; Table IV, W2; read-out: W2 IC50
Heads up, the numbers here are log10 of IC50 in nM units.

C[C@@H]1CC[C@H]2[C@@H](C)C(=O)O[C@@H]3O[C@@]4(C)CC[C@@H]1[C@]32OO4 [Artemisinin, artemisinin] ... -0.17
C=CCOCCC1CCCC2CCC3(C)OOC12C(OC)O3 (centres unmarked) [Compound 104] ... -0.49
COC1OC2(C)CCC3CCCC(CCOS(=O)(=O)c4cccc5c(N(C)C)cccc45)C31OO2 (centres unmarked) [Compound 32] ... 0.02
COC1OC2(C)CCC3CCCC(CCOCc4c(C)noc4C)C31OO2 (centres unmarked) [Compound 105] ... -0.47
COC1OC2(C)CCC3CCCC(CCOCc4ccccc4)C31OO2 (centres unmarked) [Compound 102] ... -0.60

Q) Using known records, supply log10 IC50 for OC(c1cc(C(F)(F)F)nc2c(C(F)(F)F)cccc12)C1CCCCN1 (centres unmarked) [Mefloquine]
A) -0.96

Q) Using known records, supply log10 IC50 for COC1OC2(C)CCC3CCCC(CCOC(=O)c4ccc(C(=O)O)cc4)C31OO2 (centres unmarked) [Compound 36]
A) 1.38

* * *

Here, each record is paired with measured IC50 data.
# Test system: P. falciparum malaria parasite clone Indochina (W-2)
# assay_protocol: in vitro susceptibility testing, uptake of tritiated hypoxanthine as index of inhibition of parasite growth, Indochina (W-2) clone
# Assay type: cell-based
# measurement_conditions: Plasmodium falciparum; Table IV, W2; read-out: W2 IC50

Sample answers from the record:
COC1OC2(C)CCC3CCCC(CCOC(=O)N(c4ccccc4)c4ccccc4)C31OO2 (stereo not shown) [Compound 31] ... < 0.16 nM
CCN(CC)C(=O)OCCC1CCCC2CCC3(C)OOC12C(OC)O3 (stereo not shown) [Compound 34] ... < 0.28 nM
COC1OC2(C)CCC3CCCC(CCI)C31OO2 (stereo not shown) [Compound 301] ... < 0.32 nM

With those in mind, consider the next compound.
Q) Using known records, supply IC50 for CCc1nc(N)nc(N)c1-c1ccc(Cl)cc1 [Pyrimethamine]
A) > 250 nM
